Data credit: patent US20230257449A1

Listed here are binders together with their documented EC50.
targetOrTestSystem: H1 (A/Cali/09/2007)
methodNotes: ELISA

| binder | EC50 [nM] |
| --- | --- |
| VH 9 / VL 4 (antibody, V domains shown) VH: QVQLVQSGAEVKKPGSSVKVSCKASGFTFSTYAIHWVRQAPGQGLEWMGVISYDANYKYYAQKFQGRVTITRDNSKSTAYMELSSLRSEDTAVYYCAKDSQLRSLLYFEWLSQGYFDYWGQGTTLTVSS VL: DIVMTQSPDSLAVSLGERATINCKSSQSVTFDYKNYLAWYQQKPGQPPKLLIYWASTRESGVPDRFSGSGSGTDFTLTISSLQAEDVAVYYCQQHYRTPPSFGQGTKVEIK | 0.0186 |
| VH 10 / VL 4 (antibody, V domains shown) VH: QVQLVQSGAEVKKPGSSVKVSCKASGFTFSTYAIHWVRQAPGQGLEWMGVISYDANYKYYAQKFQGRVTITRDNSKSTAYMELSSLRSEDTAVYYCARDSRLRSLLYFEWLSQGYFDYWGQGTTLTVSS VL: DIVMTQSPDSLAVSLGERATINCKSSQSVTFDYKNYLAWYQQKPGQPPKLLIYWASTRESGVPDRFSGSGSGTDFTLTISSLQAEDVAVYYCQQHYRTPPSFGQGTKVEIK | 0.0181 |
| VH 5 / VL 4 (antibody, V domains shown) VH: QVQLVESGGGVVQPGRSLRLSCAASGFTFSTYAMHWVRQAPGKGLEWVCVISYDANYKYYADSVKGRFTCSRDNSKNTLYLQMNSLRAEDTAVYYCARDSRLRSLLYFEWLSQGYFDYWGQGTLVTVSS VL: DIVMTQSPDSLAVSLGERATINCKSSQSVTFDYKNYLAWYQQKPGQPPKLLIYWASTRESGVPDRFSGSGSGTDFTLTISSLQAEDVAVYYCQQHYRTPPSFGQGTKVEIK | 0.0285 |
